Reported IC50 by item:
molecular target: Prothrombin (Bos taurus); experiment: thrombin inhibition, dose response, biochemical, fluorescence polarization, uHTS hits (AID 602369); format: functional
Calls of active or inactive are those of the source. Rule as the data show it: actives have a measured IC50 and inactives only a lower limit.

Here's what some known entries look like.
INSERT INTO assay_data (structuresmilesstring, reportedvalue) VALUES
  ('COc1ccc(-n2c(/C=C/c3ccc(O)c(O)c3)nc3ccccc3c2=O)cc1', '6.49 µM (active)'),
  ('Cc1cc(C)cc(NC(=O)Cn2nnc(C(=O)NCc3ccc4c(c3)OCO4)c2N)c1', '72.2 µM (active)'),
  ('Cc1cc(C)c(S(=O)(=O)N2C[C@H]3CON(C)[C@H]3C[C@H]2c2ccc(N3CCCCC3)cc2)c(C)c1', '29.2 µM (active)');

QUERY: Returns the measured IC50 for the input molecule. Input: CCOc1ccccc1N1C(=O)NC(=O)/C(=C\Nc2ccc(N(CC)CC)cc2)C1=O
RESULT: 13.4 µM (active)
